Values were extracted from patent US20250074901A1.

Listed next: entries and their corresponding Emax.
- Assayed system: Kv7.2 (Homo sapiens, UniProt O43526)
- Construct: expressed in transfected cells
- Experiment: Activation of Kv7.2 (in vitro assay, concentration response curve)
- Type: cell-based
- Condition info: Kv7.2 activation max %

{"Compound": "O=C(NCc1ccnc(OC(F)F)c1)N[C@@H]1CC[C@H](C(F)(F)F)C1 [Example 146]", "Assayed system": "Kv7.2 (Homo sapiens, UniProt O43526)", "Unit name": "%", "Emax": 68}
{"Compound": "O=C(NCc1ccnc(OC(F)F)c1)Nc1cccc(Cl)c1", "Assayed system": "Kv7.2 (Homo sapiens, UniProt O43526)", "Unit name": "%", "Emax": 41}
{"Compound": "O=C(NCc1ccnc(OC(F)F)n1)N[C@H]1C[C@H](C(F)(F)F)C1", "Assayed system": "Kv7.2 (Homo sapiens, UniProt O43526)", "Unit name": "%", "Emax": 42}
{"Compound": "O=C(NCc1ccnc(OCC(F)(F)F)c1)NC1CC(F)(F)C1", "Assayed system": "Kv7.2 (Homo sapiens, UniProt O43526)", "Unit name": "%", "Emax": 50}
{"Compound": "O=C(NCc1ccnc(OC(F)F)c1)NC1CCC2C(C1)C2(F)F (centres unmarked)", "Assayed system": "Kv7.2 (Homo sapiens, UniProt O43526)", "Unit name": "%", "Emax": 76}

* * *

- Assayed system: Kv7.2 (Homo sapiens)
- Construct: expressed in transfected cells
- Experiment: Activation of Kv7.2 (in vitro assay, concentration response curve)
- Assay type: cell-based
- Condition info: Kv7.2 activation max %
- Procedure: The term “EC50” in this application is defined as: the agonistic effect of a compound can be determined by testing the compound in an in vitro assay as described herein, whereby the effect of the compound is measured across a range of compound concentrations. The resulting data is plotted as a concentration response curve, which typically follows a sigmoidal function, whereby the concentration of the compound is plotted on the x axis and the response (agonistic effect) is plotted on the y axis. […]
Listed next: entries and their corresponding Emax.

{"Molecule": "O=C(NCc1ccnc(OC(F)F)c1)N[C@@H]1CCOc2ccccc21 [Example 23]", "Assayed system": "Kv7.2 (Homo sapiens)", "Unit name": "%", "Emax": 52}
{"Molecule": "O=C(NCc1ccnc(OCC(F)(F)F)c1)N[C@H]1CC[C@@H](C(F)(F)F)C1 (racemic) [Example 79]", "Assayed system": "Kv7.2 (Homo sapiens)", "Unit name": "%", "Emax": 55}
{"Molecule": "O=C(NCc1ccnc(OCC(F)(F)F)c1)NCC1(C(F)(F)F)CC1 [Example 284]", "Assayed system": "Kv7.2 (Homo sapiens)", "Unit name": "%", "Emax": 82}
{"Molecule": "O=C(NCc1ccnc(CC(F)(F)F)c1)N[C@H]1CCC[C@@H](C(F)(F)F)C1 (racemic) [Example 276]", "Assayed system": "Kv7.2 (Homo sapiens)", "Unit name": "%", "Emax": 62}
{"Molecule": "Cc1cccc(NC(=O)NC(CO)c2ccnc(OC(F)F)c2)c1 (stereo not drawn) [Example 280]", "Assayed system": "Kv7.2 (Homo sapiens)", "Unit name": "%", "Emax": 67}
{"Molecule": "O=C(NCc1ccnc(OCC(F)(F)F)c1)N[C@H]1C[C@H](C(F)F)C1 [Example 293]", "Assayed system": "Kv7.2 (Homo sapiens)", "Unit name": "%", "Emax": 93}
{"Molecule": "O=C(Nc1ccc(F)c(F)c1)NC(CO)c1ccnc(OC(F)F)c1 (stereo not drawn) [Example 240]", "Assayed system": "Kv7.2 (Homo sapiens)", "Unit name": "%", "Emax": 55}
{"Molecule": "O=C(NCc1ccnc(OC(F)F)c1)NC1CC1(F)F (stereo not drawn) [Example 173]", "Assayed system": "Kv7.2 (Homo sapiens)", "Unit name": "%", "Emax": 57}
{"Molecule": "O=C(NCc1ccnc(OCC(F)F)c1)N[C@H]1C[C@H](C(F)(F)F)C1 [Example 56]", "Assayed system": "Kv7.2 (Homo sapiens)", "Unit name": "%", "Emax": 56}
{"Molecule": "O=C(NCCC1=CCCCC1)NCc1ccnc(-n2cccn2)c1 [Example 10]", "Assayed system": "Kv7.2 (Homo sapiens)", "Unit name": "%", "Emax": 54}
{"Molecule": "Cc1cc(NC(=O)NCc2ccnc(OC(F)F)c2)ccc1F [Example 261]", "Assayed system": "Kv7.2 (Homo sapiens)", "Unit name": "%", "Emax": 40}
{"Molecule": "O=C(NCc1ccnc(OCC(F)(F)F)c1)NC12CC(F)(C1)C2 [Example 168]", "Assayed system": "Kv7.2 (Homo sapiens)", "Unit name": "%", "Emax": 59}
{"Molecule": "CC1(NC(=O)NCc2ccnc(OC(F)F)c2)CCC(F)(F)CC1 [Example 143]", "Assayed system": "Kv7.2 (Homo sapiens)", "Unit name": "%", "Emax": 40}
{"Molecule": "O=C(NCc1ccnc(OC(F)F)c1)NC(C1CC1)C(F)(F)F (stereo not drawn) [Example 106]", "Assayed system": "Kv7.2 (Homo sapiens)", "Unit name": "%", "Emax": 47}
{"Molecule": "O=C(NCc1ccnc(OCC(F)CF)c1)N[C@H]1C[C@H](C(F)(F)F)C1 (stereo partly drawn) [Example 214]", "Assayed system": "Kv7.2 (Homo sapiens)", "Unit name": "%", "Emax": 54}
{"Molecule": "C[C@]1(O)CCC[C@@H]1NC(=O)NCc1ccnc(OC(F)F)c1 [Example 184]", "Assayed system": "Kv7.2 (Homo sapiens)", "Unit name": "%", "Emax": 55}
{"Molecule": "O=C(NCc1ccnc(OC(F)F)c1)NC1CC2CCCC2C1 (stereo not drawn) [Example 78]", "Assayed system": "Kv7.2 (Homo sapiens)", "Unit name": "%", "Emax": 62}
{"Molecule": "O=C(NCc1ccnc(OCC(F)(F)F)c1)Nc1cc(F)ccc1F [Example 245]", "Assayed system": "Kv7.2 (Homo sapiens)", "Unit name": "%", "Emax": 54}
{"Molecule": "O=C(NCc1ccnc(OCC(F)(F)F)n1)Nc1cccc(Cl)c1 [Example 203]", "Assayed system": "Kv7.2 (Homo sapiens)", "Unit name": "%", "Emax": 42}
{"Molecule": "O=C(NCc1ccnc(OC(F)F)c1)N[C@@H]1CC[C@H](OC(F)(F)F)C1 [Example 288]", "Assayed system": "Kv7.2 (Homo sapiens)", "Unit name": "%", "Emax": 68}
{"Molecule": "O=C(NCc1ccnc(OC(F)F)c1)NCC1CC(F)(F)C1 [Example 181]", "Assayed system": "Kv7.2 (Homo sapiens)", "Unit name": "%", "Emax": 41}
{"Molecule": "O=C(NCc1ccnc(OC(F)F)c1)N[C@@H]1CCC(F)(F)C[C@H]1O (racemic) [Example 154]", "Assayed system": "Kv7.2 (Homo sapiens)", "Unit name": "%", "Emax": 60}
{"Molecule": "O=C(NCc1ccnc(OCC(F)(F)F)c1)N[C@H]1C[C@H](F)C1 [Example 162]", "Assayed system": "Kv7.2 (Homo sapiens)", "Unit name": "%", "Emax": 50}
{"Molecule": "O=C(NCc1ccnc(OC(F)F)c1)NC(C(F)(F)F)C(F)(F)F [Example 228]", "Assayed system": "Kv7.2 (Homo sapiens)", "Unit name": "%", "Emax": 58}
{"Molecule": "O=C(NCc1ccnc(OC(F)F)c1)N[C@@H]1CCCC(F)(F)C1 [Example 149]", "Assayed system": "Kv7.2 (Homo sapiens)", "Unit name": "%", "Emax": 43}
{"Molecule": "O=C(NCc1ccnc(OC(F)F)c1)N[C@H]1CC[C@H](F)C1 [Example 239]", "Assayed system": "Kv7.2 (Homo sapiens)", "Unit name": "%", "Emax": 57}
{"Molecule": "O=C(NCc1ccnc(OCC(F)(F)F)c1)NC1CC(C2CC2)C1 (stereo not drawn) [Example 235]", "Assayed system": "Kv7.2 (Homo sapiens)", "Unit name": "%", "Emax": 88}
{"Molecule": "O=C(NCc1ccnc(OCC(F)CF)c1)Nc1cccc(Cl)c1 (stereo not drawn) [Example 220]", "Assayed system": "Kv7.2 (Homo sapiens)", "Unit name": "%", "Emax": 48}
{"Molecule": "O=C(NCc1ccnc(-c2cnco2)c1)N[C@H]1C[C@@H]2CC[C@H]1C2 (racemic) [Example 28]", "Assayed system": "Kv7.2 (Homo sapiens)", "Unit name": "%", "Emax": 76}
{"Molecule": "CC(F)COc1cc(CNC(=O)N[C@H]2C[C@H](C(F)(F)F)C2)ccn1 (stereo partly drawn) [Example 183]", "Assayed system": "Kv7.2 (Homo sapiens)", "Unit name": "%", "Emax": 58}
{"Molecule": "O=C(Nc1cccc(Cl)c1F)NC(CO)c1ccnc(OCC(F)(F)F)c1 (stereo not drawn) [Example 150]", "Assayed system": "Kv7.2 (Homo sapiens)", "Unit name": "%", "Emax": 73}
{"Molecule": "O=C(NCc1ccnc(OC(F)F)c1)N[C@@H]1[C@H]2CCC(F)(F)[C@H]21 [Example 170]", "Assayed system": "Kv7.2 (Homo sapiens)", "Unit name": "%", "Emax": 59}
{"Molecule": "O=C(NCc1ccnc(OC(F)F)c1)NC1(C2CCC2)CC1 [Example 50]", "Assayed system": "Kv7.2 (Homo sapiens)", "Unit name": "%", "Emax": 56}
{"Molecule": "O=C(NCc1ccnc(OCC(F)(F)F)c1)NC1(C2CC(F)(F)C2)CC1 [Example 254]", "Assayed system": "Kv7.2 (Homo sapiens)", "Unit name": "%", "Emax": 40}
{"Molecule": "O=C(NCc1ccnc(OCC(F)(F)F)c1)N[C@H]1C[C@H](C(F)(F)F)C1 [Example 179]", "Assayed system": "Kv7.2 (Homo sapiens)", "Unit name": "%", "Emax": 48}
{"Molecule": "CC(C)(C)CNC(=O)NCc1ccnc(OC(F)F)c1 [Example 29]", "Assayed system": "Kv7.2 (Homo sapiens)", "Unit name": "%", "Emax": 63}
